All values here come from paper PMC7374170.

# target: T1, TRIB3 (tribbles pseudokinase 3), purified protein (UniProt Q96RU7 1-358)
# T1 chain: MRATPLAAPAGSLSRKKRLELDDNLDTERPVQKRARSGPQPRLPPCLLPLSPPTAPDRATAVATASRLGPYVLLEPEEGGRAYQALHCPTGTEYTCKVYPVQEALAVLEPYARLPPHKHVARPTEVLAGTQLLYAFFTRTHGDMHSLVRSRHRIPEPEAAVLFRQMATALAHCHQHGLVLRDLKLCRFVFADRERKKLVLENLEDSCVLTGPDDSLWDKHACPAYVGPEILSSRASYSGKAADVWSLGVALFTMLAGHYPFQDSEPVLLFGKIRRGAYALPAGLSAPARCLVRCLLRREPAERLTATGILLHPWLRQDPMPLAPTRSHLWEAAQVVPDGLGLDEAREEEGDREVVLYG
# procedureText: SPR
measurementLabel: pKd
pKd here is simply -log10 of the concentration when that concentration is written in mol/L.

binder: NQALLRIIKETEFK [JMA2 peptide with the Leu-to-Ile substitution]
measurementLabel: pKd
number: 5.98

# input binder: NQALLRIVKETEFK [JMA2 peptide with the Leu-to-Val substitution] ; wanted: its pKd
5.27
